# System: D(4) dopamine receptor (Homo sapiens)
# Sequence (P21917 whole entry): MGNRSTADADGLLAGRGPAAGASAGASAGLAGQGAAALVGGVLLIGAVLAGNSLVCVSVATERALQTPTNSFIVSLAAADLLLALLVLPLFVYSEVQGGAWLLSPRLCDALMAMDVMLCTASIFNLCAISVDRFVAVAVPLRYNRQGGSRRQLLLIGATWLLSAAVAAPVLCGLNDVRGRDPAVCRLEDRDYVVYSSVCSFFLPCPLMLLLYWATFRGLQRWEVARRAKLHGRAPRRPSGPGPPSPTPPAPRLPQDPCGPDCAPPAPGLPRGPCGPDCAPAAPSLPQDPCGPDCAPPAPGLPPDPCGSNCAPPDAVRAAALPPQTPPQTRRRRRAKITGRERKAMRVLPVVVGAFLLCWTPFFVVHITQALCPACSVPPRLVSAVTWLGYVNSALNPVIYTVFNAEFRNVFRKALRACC
Below: compounds with Ki recorded for D(4) dopamine receptor (Homo sapiens) in separate published works.
Measurement Kind: Ki (µM)

In the examples that follow, each entry is paired with its recorded Ki.
{"Line Notation": "COc1ccccc1N1CCN(CCCCc2cc(-c3ccccc3)no2)CC1", "Unit Text": "µM", "Test Value": 0.198}
{"Line Notation": "N#Cc1ccc2[nH]cc(CN3CCN(c4ccccc4)CC3)c2c1", "Unit Text": "µM", "Test Value": 0.05}

[I] COc1cc2c(cc1O)CN(CCCCNC(=O)c1ccc(O)cc1)CC2
[II] c1ccc(CN2CCC(n3cccc3-c3cnco3)CC2)cc1
[III] COc1ccccc1N1CCN(CCCCNC(=O)/N=N/c2ccc(F)c(F)c2)CC1
[IV] Cc1ccc(OCCNCCCSc2ccccc2)cc1
query: Arrange the 4 compounds by rising Ki, starting with the smallest. Rank the items, then write their labels in that order.
result: IV, III, II, I
(IV: 0.0008 µM, III: 0.036 µM, II: 0.063 µM, I: 0.66 µM)
